Test: differential killing of epithelial or mesenchymal cells, primary screen, imaging, PC-3E GFP, TEM4-18 mCherry, co-culture (AID 1345086);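 also: normalised mesenchymal count divided by normalised epithelial count so high means epithelial killing; cells exposed to compound for 72 h before imaging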
Conditions: imaging cell counts, at 1 µM, actives lie on both sides, counts scaled to control wells, 1 = unselective
Give measured red/green cell ratio (normalised) for each item. Keep answers brief.
Give bare numbers.

A selection of reference data follows.
1) O=C(O)c1cc2cc(Cl)ccc2[nH]1	1
2) C=C1CCC2C(CC2(C)C)C(=O)CCC1O (stereo unspecified)	1.02
3) COc1ccc2c(c1)OC[C@@H](Cc1ccc(OC)c(OC)c1)[C@H]2O	1.09

Would you be so kind as to report red/green cell ratio (normalised) for each listed record?
1. COc1cc(OC)c2c(OC)c(-c3ccc4c(c3)OCO4)c(=O)oc2c1
2. COC(=O)c1c(OC)cc2c(c1C)Oc1c(Cl)c(O)c(Cl)c(C)c1C(=O)O2
3. CCCCCCCCCc1ccc(OCCOCCOCCOCCOCCOCCOCCOCCOCCO)cc1

Ans:
1.02
1.02
1.03

* * *

Task for the reader: assign each of the following compounds its reported tube area decrease.
Assay: inhibition of endothelial tube formation, primary screen, imaging, VEGF stimulated, CD31 staining, tube area, NPC library (AID 1117340)
Details: VEGF-stimulated ADSC/ECFC co-culture, at 10 µM, stronger effect = higher value
Answers are plain numbers, in %.

Recorded results for 5 compounds are shown here.
1. CC(=O)Oc1cc(C(C)C)c(OCCN(C)C)cc1C	-2.1
2. O=c1cc(O)c(Cl)c[nH]1	-18.9
3. O=C(O)CN(CCOCCOCCN(CC(=O)O)CC(=O)O)CC(=O)O	6.4
4. CCC1C(=O)OCC1Cc1cncn1C (configuration not stated)	-1.1
5. CCCCCCCCCCCCCCCC(=O)NCCO	-5.7

Quick request: tube area decrease for each listed item, please.
1. COC(=O)C1=C(C)NC(C)=C(C(=O)OC(C)(C)CN(C)CCC(c2ccccc2)c2ccccc2)C1c1cccc([N+](=O)[O-])c1 (configuration not stated)
2. C[C@H](O)C(=O)Nc1c(I)c(C(=O)NC(CO)CO)c(I)c(C(=O)NC(CO)CO)c1I
3. CC[C@H](c1ccc(O)cc1)[C@@H](CC)c1ccc(O)cc1
4. C[C@@H](O)[C@H]1C(=O)N2C(C(=O)O)=C(SCCN=CN)C[C@H]12
5. CNCCCN1c2ccccc2CCc2ccccc21
6. CCOc1nc2cccc(C(=O)O)c2n1Cc1ccc(-c2ccccc2-c2nn[nH]n2)cc1

Ans:
1: 90.2; 2: -18.2; 3: 20.9; 4: 8.2; 5: 12.6; 6: 5.3

Q: Looking for the measured tube area decrease of "O=C(Oc1ccccc1C(=O)O)c1ccccc1O" , can you help?
Ans: 3.9

* * *

Assay: viability rescue of complex I mutant cybrids, primary screen, cell-based, galactose medium, ATP luminescence (AID 1645843);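 also: positive z means more ATP and so rescue of galactose-driven cybrid death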
Conditions: complex I mutant cybrid cells, 72 h, stronger effect = higher value
Please respond with reported z-score for every item in the list.
Numbers only.

1. Cc1ccc(C(=O)c2cc(O)c(O)c([N+](=O)[O-])c2)cc1	-0.715
2. CCC[C@@H]1C[C@@H](C(=O)N[C@@H]([C@H]2O[C@H](SC)[C@H](O)[C@@H](O)[C@H]2O)[C@@H](C)O)N(C)C1	-0.14
3. CCCN(CCC)CCc1cccc2c1CC(=O)N2	0.47
4. CC(C)(C)C(=O)OCOP(=O)(COCCn1cnc2c(N)ncnc21)OCOC(=O)C(C)(C)C	-0.625
5. CC(=O)Oc1cc(C(C)C)c(OCCN(C)C)cc1C	0.335
6. O=c1cc(-c2ccccc2)oc2c(O)c(O)ccc12	-0.44
7. CC1(C)S[C@@H]2[C@H](NC(=O)[C@H](N)c3ccc(O)cc3)C(=O)N2[C@H]1C(=O)O	0.84
8. CC1(c2ccccc2)OC(C(=O)O)=CC1=O (stereo not given)	-0.34
9. CC(=O)N1CCN(c2ccc(OCC3CO[C@](Cn4ccnc4)(c4ccc(Cl)cc4Cl)O3)cc2)CC1 (stereo not given in full)	-0.8

Next:
Q: What value of z-score has been reported for the following compound? "Cn1c(=O)c2[nH]c(C3CCCC3)nc2n(C)c1=O"
Ans: 0.92
